Consider the following compounds; for each one, report its z-score.
assay: S. cerevisiae growth modulation with rapamycin, primary screen, strain BY4716, OD600, 96 h (AID 1091); settings: higher = more signal, called active from +8 up or from −8 down; further: test concentration not given here
Answers are plain numbers.

// solved cases for z-score follow
C#CCCCON=C1C[C@@H](O)[C@@H](O)[C@@H]2[C@@H]3C(=O)N(C4CCCCC4)C(=O)[C@@H]3CC[C@H]12; -0.193
CCOC(=O)NN=C1C[C@@H](O)[C@@H](O)[C@@H]2[C@@H]3C(=O)N(Cc4ccccc4)C(=O)[C@@H]3CC[C@@H]12; 0.552
CCN1C(=O)[C@H]2[C@H]3[C@H](O)[C@H](O)CC(=NOC)[C@@H]3CC[C@H]2C1=O; -0.495
CCCNC(=O)OC[C@H]1O[C@H](CCON=C(C)CCC(=O)OC[C@H]2O[C@H](C#Cc3ccccc3)C=C[C@@H]2Oc2ccc(C)cc2)C=C[C@@H]1Oc1ccc(OC)cc1; 0.794
CC(C)CCN1CCc2nc(-c3ccccc3)c3c(c2C1)CO[C@@H](C)C3; 0.622

Batch request: z-score per item, same order as input.
1. Cc1ccc(S(=O)(=O)N[C@H]2COC(=O)[C@@H](C)COC(=O)[C@H](C)NC(=O)CC=C[C@H]2C)cc1
2. CCOC(=O)[C@H](Cc1ccccc1)NC(=O)CCC1CC(OC(=O)NCc2cccc3ccccc23)CC2(CCCC(COC(=O)NCCCN3CCCC3=O)O2)O1 (some centres not stated)

Found:
1. -0.351
2. -0.896

* * *

test system: Noggin (protein binding on small-molecule microarray); test: Noggin binders on small-molecule microarray, primary screen, biochemical, 635/667 nm fluorescence (AID 1095); conditions: 635 nm fluorescence, higher = more signal;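 further: score merges 667 nm feature fluorescence with signal to noise over triplicate slides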
Consider the following molecules; for each one, report its composite z-score.
One number for each entry.

C=C(C)C(=O)OC[C@@H]1CN2[C@@H](CC[C@@H](C)[C@@H]2c2ccc(Br)cc2)C(=O)O1; 0.314
Cc1ccc(S(=O)(=O)N[C@H]2COC(=O)[C@@H](C)COC(=O)[C@H](C)NC(=O)CC=C[C@H]2C)cc1; 1.17
CCOC(=O)[C@H](Cc1ccccc1)NC(=O)CCC1CC(OC(=O)NCc2cccc3ccccc23)CC2(CCCC(COC(=O)NCCCN3CCCC3=O)O2)O1 (some centres undefined); 0.692
C#CCCCON=C1C[C@@H](O)[C@@H](O)[C@@H]2[C@@H]3C(=O)N(C4CCCCC4)C(=O)[C@@H]3CC[C@H]12; 0.417
O=C(NN=C1C[C@@H](O)[C@@H](O)[C@@H]2[C@@H]3C(=O)N(Cc4ccc5c(c4)OCO5)C(=O)[C@@H]3CC[C@H]12)OCc1ccccc1; 0.707

Batch request: composite z-score per item, same order as input.
1. CCCNC(=O)OC[C@H]1O[C@H](CCON=C(C)CCN2CCc3nc(-c4ccccc4)c(-c4ccccc4)cc3C2)C=C[C@@H]1Oc1ccc(OC)cc1
2. CO[C@@H]1C=CCC(=O)N2CCC[C@H]2C(=O)OC[C@H](C)C(=O)OC[C@H]1C
3. C[C@@H](c1ccccc1)N1C(=O)[C@H]2[C@H]3[C@H](O)[C@H](O)CC(=O)[C@@H]3CC[C@H]2C1=O
4. CCOC(=O)NN=C1C[C@@H](O)[C@@H](O)[C@@H]2[C@@H]3C(=O)N(Cc4ccccc4)C(=O)[C@@H]3CC[C@@H]12

Found:
1. 0.553
2. 1.41
3. 0.798
4. 0.406

* * *

test: binders from COS7 lysate, DM2A8 probe, primary screen, torsin A project, cell lysate, small-molecule microarray, fluorescence 635/667 (AID 1065); details: higher = more signal, COS7 lysate expressing mutant human TOR1A
experimental_endpoint: composite z-score
Numbers only.

CCCNC(=O)OC[C@H]1O[C@H](CCON=C(C)CCC(=O)OC[C@H]2O[C@H](C#Cc3ccccc3)C=C[C@@H]2Oc2ccc(C)cc2)C=C[C@@H]1Oc1ccc(OC)cc1; -0.115
CC(C)CCN1CCc2nc(-c3ccccc3)c3c(c2C1)CO[C@@H](C)C3; 0.0532
CC(=O)OC[C@H]1O[C@H](C#CC(C)(C)C)C=C[C@@H]1OC(C)=O; -0.159
CCN1C(=O)[C@H]2[C@H]3[C@H](O)[C@H](O)CC(=NNC(=O)OCc4ccc(OC)cc4)[C@H]3CC[C@H]2C1=O; 0.349
CCOC(=O)NN=C1C[C@@H](O)[C@@H](O)[C@@H]2[C@@H]3C(=O)N(Cc4ccccc4)C(=O)[C@@H]3CC[C@@H]12; 0.0854

Batch request: composite z-score per item, same order as input.
1. CCN1C(=O)[C@H]2[C@H]3[C@H](O)[C@H](O)CC(=NOC)[C@@H]3CC[C@H]2C1=O
2. CC(C)=NO[C@@H](C)c1cc(-c2c(C)cc(C)cc2C)no1
3. CC(C)C(=O)N[C@@H]1CCCN1C(=O)C=Cc1ccccc1

Found:
-0.604
-0.146
0.323

* * *

Consider the following compounds; for each one, report its composite z-score.
assay: small-molecule microarray binders of probe aWnt5a, primary screen, biochemical, biotinylated probe, 635/667 nm fluorescence (AID 1113); details: higher = more signal;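 further: score merges 667 nm fluorescence intensity with signal-to-noise per printed feature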
Give bare numbers.

// solved cases for composite z-score follow
CCN1C(=O)[C@H]2[C@H]3[C@H](O)[C@H](O)CC(=NOC)[C@@H]3CC[C@H]2C1=O; -0.147
CCCNC(=O)OC[C@H]1O[C@H](CCON=C(C)CCC(=O)OC[C@H]2O[C@H](C#Cc3ccccc3)C=C[C@@H]2Oc2ccc(C)cc2)C=C[C@@H]1Oc1ccc(OC)cc1; -0.258
CC(C)=NOC[C@@H](O)COCc1ccco1; -0.172
CO[C@@H]1C=CCC(=O)N2CCC[C@H]2C(=O)OC[C@H](C)C(=O)OC[C@H]1C; -0.202
CC(=O)OC[C@H]1O[C@H](C#CC(C)(C)C)C=C[C@@H]1OC(C)=O; -0.191

Batch request: composite z-score per item, same order as input.
1. CCN1C(=O)[C@H]2[C@H]3[C@H](O)[C@H](O)CC(=NNC(=O)OCc4ccc(OC)cc4)[C@H]3CC[C@H]2C1=O
2. CCCNC(=O)OC[C@H]1O[C@H](CCON=C(C)CCN2CCc3nc(-c4ccccc4)c(-c4ccccc4)cc3C2)C=C[C@@H]1Oc1ccc(OC)cc1
3. CCOC(=O)[C@H](Cc1ccccc1)NC(=O)CCC1CC(OC(=O)NCc2cccc3ccccc23)CC2(CCCC(COC(=O)NCCCN3CCCC3=O)O2)O1 (stereo partly specified)
4. CO[C@@H]1COC(=O)CC=C[C@H](C)COC(=O)[C@H](C)NC(=O)CC=C[C@H]1C

Found:
1: 0.0597; 2: -0.0535; 3: -0.2; 4: -0.13

Batch request: composite z-score per item, same order as input.
1. CC(C)CON=C1C[C@@H](O)[C@@H](O)[C@@H]2[C@@H]3C(=O)N(c4cccc(Oc5ccccc5)c4)C(=O)[C@@H]3CC[C@H]12
2. CC(C)=NO[C@@H](C)c1cc(-c2c(C)cc(C)cc2C)no1
3. C[C@@H](ON=C1[C@H]2CCn3c(=O)n(-c4ccccc4)c(=O)n3[C@H]2[C@H](O)[C@@H]2O[C@H]12)c1cn([C@H](CO)Cc2ccccc2)nn1
4. CCOC(=O)NN=C1C[C@@H](O)[C@@H](O)[C@@H]2[C@@H]3C(=O)N(Cc4ccccc4)C(=O)[C@@H]3CC[C@@H]12

Found:
1. -0.0269
2. -0.152
3. -0.148
4. 0.134

Batch request: composite z-score per item, same order as input.
1. CCOC(=O)[C@H](CC(C)C)NC(=O)CCC1CC(OC(=O)NCc2cccc3ccccc23)CC2(CCCC(COC(=O)NCc3ccccc3)O2)O1 (stereo partly specified)
2. CC(C)CCN1CCc2nc(-c3ccccc3)c3c(c2C1)CO[C@@H](C)C3

Found:
1: -0.152; 2: -0.0944

composite z-score reported for this compound C[C@@H](c1ccccc1)N1C(=O)[C@H]2[C@H]3[C@H](O)[C@H](O)CC(=O)[C@@H]3CC[C@H]2C1=O : -0.119

* * *

biological target: Follistatin-related protein 3 (Homo sapiens) (UniProt O95633); test: FSTL3 binders on small-molecule microarrays, primary screen, biochemical, small-molecule microarray, 635 nm fluorescence (AID 1105); details: FSTL3 binding, higher = more signal;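 further: score merges emission near 667 nm and signal to noise per printed spot across three slides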
Sequence (O95633 whole entry, looked up): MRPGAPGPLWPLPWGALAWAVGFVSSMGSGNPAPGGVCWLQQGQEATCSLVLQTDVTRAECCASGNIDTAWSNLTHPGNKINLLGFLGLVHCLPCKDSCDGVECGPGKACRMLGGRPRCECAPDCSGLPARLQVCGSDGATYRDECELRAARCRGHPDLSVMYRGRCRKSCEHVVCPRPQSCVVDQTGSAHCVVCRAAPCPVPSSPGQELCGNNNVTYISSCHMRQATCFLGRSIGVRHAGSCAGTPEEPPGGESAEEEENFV
experimental_endpoint: composite z-score
One number for each entry.

// solved cases for composite z-score follow
CC(C)=NOC[C@@H](O)COCc1ccco1; -0.628
C[C@@H]1CC[C@@H](C(=O)O)N[C@H]1c1ccc(-c2ccco2)cc1; 1.44
CC(C)C(=O)N[C@@H]1CCCN1C(=O)C=Cc1ccccc1; 0.709
CO[C@H]1COC(=O)CC=C[C@@H](C)COC(=O)[C@@H](OCc2ccccc2)C=C[C@@H]1C; 1.32

composite z-score reported for this compound CCN1C(=O)[C@H]2[C@H]3[C@H](O)[C@H](O)CC(=NOC)[C@@H]3CC[C@H]2C1=O : -0.0407
